# tgt: Protein arginine N-methyltransferase 3 (Homo sapiens, UniProt O60678)
# Sequence (O60678 whole entry): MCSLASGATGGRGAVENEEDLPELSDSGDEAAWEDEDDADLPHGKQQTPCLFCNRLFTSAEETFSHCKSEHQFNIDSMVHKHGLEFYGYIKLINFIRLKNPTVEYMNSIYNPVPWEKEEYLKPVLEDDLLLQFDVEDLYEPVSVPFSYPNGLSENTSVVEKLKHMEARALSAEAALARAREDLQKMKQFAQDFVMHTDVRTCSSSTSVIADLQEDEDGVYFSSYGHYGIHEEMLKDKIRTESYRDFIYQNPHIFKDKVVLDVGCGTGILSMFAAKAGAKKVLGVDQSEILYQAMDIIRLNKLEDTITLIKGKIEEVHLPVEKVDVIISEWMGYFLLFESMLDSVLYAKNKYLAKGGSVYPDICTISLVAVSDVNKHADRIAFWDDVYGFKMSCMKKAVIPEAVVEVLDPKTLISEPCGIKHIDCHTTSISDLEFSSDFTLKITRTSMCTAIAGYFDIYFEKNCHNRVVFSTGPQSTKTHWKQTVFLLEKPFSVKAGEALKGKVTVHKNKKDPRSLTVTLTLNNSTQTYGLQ
readoutKind: pIC50
Would you please state pIC50, meaning minus log10 of the concentration in mol/L, as a bare number?

Ask: Which measured pIC50 value corresponds to Cc1cc(C)c(CNC(=O)c2cc(Cl)c3c(c2C)O[C@@](C)([C@H]2CC[C@H](N(C)C)CC2)O3)c(=O)[nH]1 [VALEMETOSTAT] ?
Result: 4.00

###

# tgt: Histone-lysine N-methyltransferase NSD2 (Homo sapiens, UniProt O96028, T1150A)
# Sequence (O96028 whole entry T1150A): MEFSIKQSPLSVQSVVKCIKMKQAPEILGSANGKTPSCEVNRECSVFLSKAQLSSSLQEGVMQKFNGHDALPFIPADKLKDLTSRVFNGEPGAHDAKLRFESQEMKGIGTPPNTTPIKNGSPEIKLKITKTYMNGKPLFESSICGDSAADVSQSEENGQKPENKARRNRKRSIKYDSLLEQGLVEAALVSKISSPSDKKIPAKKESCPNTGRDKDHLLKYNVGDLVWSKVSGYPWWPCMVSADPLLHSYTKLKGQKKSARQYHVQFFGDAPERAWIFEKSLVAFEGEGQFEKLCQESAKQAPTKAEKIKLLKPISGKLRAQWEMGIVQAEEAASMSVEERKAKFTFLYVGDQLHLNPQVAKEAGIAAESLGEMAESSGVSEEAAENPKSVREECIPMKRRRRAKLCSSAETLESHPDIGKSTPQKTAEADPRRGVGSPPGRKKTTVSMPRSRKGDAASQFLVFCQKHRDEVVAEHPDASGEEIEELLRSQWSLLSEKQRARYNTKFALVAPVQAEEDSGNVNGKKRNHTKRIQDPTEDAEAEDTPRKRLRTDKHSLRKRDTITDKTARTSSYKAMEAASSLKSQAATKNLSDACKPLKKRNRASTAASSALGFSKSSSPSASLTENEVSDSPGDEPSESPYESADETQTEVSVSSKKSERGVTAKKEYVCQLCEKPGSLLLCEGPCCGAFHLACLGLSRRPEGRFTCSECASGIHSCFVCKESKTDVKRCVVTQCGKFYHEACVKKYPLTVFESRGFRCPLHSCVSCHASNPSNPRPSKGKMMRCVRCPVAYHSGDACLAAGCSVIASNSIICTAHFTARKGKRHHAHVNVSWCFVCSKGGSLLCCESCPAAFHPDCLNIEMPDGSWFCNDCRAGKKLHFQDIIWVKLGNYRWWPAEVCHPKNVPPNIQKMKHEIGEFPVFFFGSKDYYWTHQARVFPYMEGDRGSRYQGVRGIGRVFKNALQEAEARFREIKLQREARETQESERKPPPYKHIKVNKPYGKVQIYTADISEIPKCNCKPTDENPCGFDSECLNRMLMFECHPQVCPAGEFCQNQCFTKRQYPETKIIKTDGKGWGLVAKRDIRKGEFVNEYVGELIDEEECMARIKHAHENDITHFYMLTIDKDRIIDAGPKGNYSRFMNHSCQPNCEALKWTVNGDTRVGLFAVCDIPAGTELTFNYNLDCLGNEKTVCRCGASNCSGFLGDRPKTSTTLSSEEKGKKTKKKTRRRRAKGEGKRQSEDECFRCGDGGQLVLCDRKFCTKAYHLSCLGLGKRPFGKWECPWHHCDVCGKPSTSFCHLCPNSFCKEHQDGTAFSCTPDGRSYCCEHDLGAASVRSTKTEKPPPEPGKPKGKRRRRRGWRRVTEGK
# protocolText: Inhibition of human NSD2 T1150A mutant using Nucleosomes and [3H]SAM as substrate incubated for 30 mins to 1 hr by HotSpot kinase assay
readoutKind: IC50 (µM)
Please respond with the number in µM and leave the unit unwritten.

Ask: Which measured IC50 value corresponds to Cc1cc(C)c(CNC(=O)c2cc(Cl)c3c(c2C)O[C@@](C)([C@H]2CC[C@H](N(C)C)CC2)O3)c(=O)[nH]1 [VALEMETOSTAT] ?
Result: 100
